B1: CPEB3 Ribozyme (parent)
chain: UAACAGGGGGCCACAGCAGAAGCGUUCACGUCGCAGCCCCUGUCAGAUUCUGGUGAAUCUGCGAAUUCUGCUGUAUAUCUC

Variants of: B1
test-description: self-cleavage, relative activity (ratio to wild type); higher = more cleavage; in vitro, sequencing
measured-metric: self-cleavage
Reply with just the number.

Data request, read-out self-cleavage, for C59U C62U 0.16

So what does the record say about self-cleavage for C50G A57G ? 0.51

// query self-cleavage value for entry G46U U78C 0.27

Please report the recorded self-cleavage for A65U U72A . 0.23

Name the recorded self-cleavage for G9A U25A . 0.2

Look up self-cleavage for this variant: U41C A57C 0.58

So what does the record say about self-cleavage for A20U C27G ? 0.19

// query self-cleavage value for entry G19C G52U 0.35

self-cleavage lookup needed for A15C U25C , thanks. 0.23

I have this variant here, G24U A28G , and I need its recorded self-cleavage. 0.17

// lookup self-cleavage for G7U C32U 0.07

What value of self-cleavage has been reported for the following variant? U54A C68A 0.44

Given the entry U25A A65C , report its measured self-cleavage. 0.08

For the variant G16A A57G , what self-cleavage is on record? 0.27

Value lookup for self-cleavage; key = U41A G61U 0.24

Name the recorded self-cleavage for G7C G24C . 0.15

What does the data say about its self-cleavage? Entry: A5U G16U 0.66

Could you tell me which self-cleavage is on file for A15U U49G ? 0.36

Item A18G A57G has what recorded self-cleavage? 0.55

Endpoint output: self-cleavage of A28U U48A . Value? 0.38

Consider the variant A2C U72A and give its measured self-cleavage. 0.72

Please look up its self-cleavage: C37G C68A 0.18

For the variant shown here, C40U U69A , give the reported self-cleavage. 0.41

Please report the recorded self-cleavage for U66A A77G . 0.45

Param item = A13G C29U ; retrieve measured self-cleavage. 0.33

Would you kindly share the measured self-cleavage for C29U C62U ? 0.21

Dear colleague, I am looking for the recorded self-cleavage of the following variant: A3U U72A 1

Name the recorded self-cleavage for G6U U67C . 0.11

Query: self-cleavage; subject: A45U U51A 0.33

Quick one: self-cleavage of U41A U76A ? 0.16

self-cleavage lookup needed for A2G A18C , thanks. 0.43

Return reported self-cleavage; argument: G33A U74C 0.57

Field request: self-cleavage | item: A20G A47G 0.75

Looking for the measured self-cleavage of G16A A28G , can you help? 0.25

Query: self-cleavage; subject: A5G U48C 0.57

// query self-cleavage value for entry U69A U72G 0.49
